- measurement target: Muscarinic acetylcholine receptor M2 (Homo sapiens) (UniProt P08172)
- Sequence (P08172 whole entry): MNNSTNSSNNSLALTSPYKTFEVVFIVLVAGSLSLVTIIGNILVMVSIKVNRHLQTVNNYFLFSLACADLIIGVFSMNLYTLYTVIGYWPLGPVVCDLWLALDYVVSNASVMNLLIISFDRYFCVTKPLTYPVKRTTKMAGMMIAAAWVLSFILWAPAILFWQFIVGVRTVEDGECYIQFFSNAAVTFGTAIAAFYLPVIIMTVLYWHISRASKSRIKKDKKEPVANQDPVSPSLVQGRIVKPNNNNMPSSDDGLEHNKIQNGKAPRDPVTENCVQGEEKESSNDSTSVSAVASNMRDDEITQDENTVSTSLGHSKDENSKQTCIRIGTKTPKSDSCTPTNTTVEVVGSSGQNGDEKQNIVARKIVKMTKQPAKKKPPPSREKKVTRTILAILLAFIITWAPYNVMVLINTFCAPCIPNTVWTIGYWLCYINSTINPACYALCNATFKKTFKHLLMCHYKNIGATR
- assay overview: Percent increase in forskolin-stimulated cAMP accumulation using CHO cells, transfected with human muscarinic m2 acetylcholine receptor (AChR)
- Type: functional, cell-based
measured quantity: Increase (%)

>  <compound>
C[C@@H]1OC2(CS1)CN1CCC2CC1 (some centres undefined)

>  <readout unit>
%

>  <recorded result>
60

$$$$
>  <compound>
CC1=NCC2(CCN(C)CC2)O1

>  <readout unit>
%

>  <recorded result>
74

$$$$
>  <compound>
C[N+](C)(C)CC#CCOC(=O)Nc1cccc(Cl)c1

>  <readout unit>
%

>  <recorded result>
9.5

$$$$
>  <compound>
CC1=NC2(CCN(C)CC2)CO1

>  <readout unit>
%

>  <recorded result>
70

$$$$

* * *

- measurement target: Muscarinic acetylcholine receptor M1 (Homo sapiens) (UniProt P11229)
- Sequence (whole entry): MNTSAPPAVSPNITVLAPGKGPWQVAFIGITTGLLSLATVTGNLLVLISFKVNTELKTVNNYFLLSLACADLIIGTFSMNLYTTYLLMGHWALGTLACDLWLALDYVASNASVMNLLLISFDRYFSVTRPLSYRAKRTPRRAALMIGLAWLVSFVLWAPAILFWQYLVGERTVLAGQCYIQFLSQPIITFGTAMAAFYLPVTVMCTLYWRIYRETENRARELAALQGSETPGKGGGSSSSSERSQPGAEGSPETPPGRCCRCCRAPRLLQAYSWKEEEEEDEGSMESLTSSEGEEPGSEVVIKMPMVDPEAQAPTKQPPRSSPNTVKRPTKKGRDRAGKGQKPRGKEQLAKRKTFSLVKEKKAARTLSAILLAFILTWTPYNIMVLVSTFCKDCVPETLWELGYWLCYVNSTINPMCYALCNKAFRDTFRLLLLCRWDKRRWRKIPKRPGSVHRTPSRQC
- assay overview: Percent increase in phosphoinositides (PI) hydrolysis using chinese hamster ovary (CHO) cells, stably transfected with human muscarinic m1 acetylcholine receptor (AChR)
- Format: functional, cell-based

>  <molecule>
C[N+](C)(C)CC#CCOC(=O)Nc1cccc(Cl)c1

>  <readout unit>
%

>  <Increase>
89

$$$$
>  <molecule>
C[C@@H]1OC2(CS1)CN1CCC2CC1 (some centres undefined)

>  <readout unit>
%

>  <Increase>
43

$$$$
>  <molecule>
CC1=NCC2(CCN(C)CC2)O1

>  <readout unit>
%

>  <Increase>
85

$$$$
>  <molecule>
CC1=NC2(CCN(C)CC2)CO1

>  <readout unit>
%

>  <Increase>
102

$$$$

* * *

- measurement target: Muscarinic acetylcholine receptor M3 (Homo sapiens) (UniProt P20309)
- Sequence (P20309 whole entry, looked up): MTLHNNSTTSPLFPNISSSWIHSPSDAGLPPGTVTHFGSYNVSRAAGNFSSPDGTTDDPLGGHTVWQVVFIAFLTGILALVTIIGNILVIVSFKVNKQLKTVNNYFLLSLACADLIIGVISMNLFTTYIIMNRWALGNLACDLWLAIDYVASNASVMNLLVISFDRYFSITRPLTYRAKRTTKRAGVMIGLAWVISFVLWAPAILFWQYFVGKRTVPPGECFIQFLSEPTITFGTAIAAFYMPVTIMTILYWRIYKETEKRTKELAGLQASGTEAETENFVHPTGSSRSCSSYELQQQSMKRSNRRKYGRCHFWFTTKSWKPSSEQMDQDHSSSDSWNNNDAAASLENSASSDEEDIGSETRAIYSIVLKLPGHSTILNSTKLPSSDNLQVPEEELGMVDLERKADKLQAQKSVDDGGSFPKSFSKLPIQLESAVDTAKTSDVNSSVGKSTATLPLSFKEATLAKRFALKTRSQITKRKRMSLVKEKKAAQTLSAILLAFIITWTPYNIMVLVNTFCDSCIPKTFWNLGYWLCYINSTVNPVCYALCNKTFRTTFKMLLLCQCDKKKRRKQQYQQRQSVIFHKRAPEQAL
- assay overview: Percent increase in phosphoinositides (PI) hydrolysis using CHO cells, stably transfected with human muscarinic m3 acetylcholine receptor (AChR)
- Format: functional, cell-based
Some molecules, each annotated with its measured Increase.

>  <molecule>
C[N+](C)(C)CC#CCOC(=O)Nc1cccc(Cl)c1

>  <Increase (%)>
7

$$$$
>  <molecule>
CC1=NC2(CCN(C)CC2)CO1

>  <Increase (%)>
84

$$$$
>  <molecule>
CC1=NCC2(CCN(C)CC2)O1

>  <Increase (%)>
76

$$$$
>  <molecule>
C[C@@H]1OC2(CS1)CN1CCC2CC1 (some centres undefined)

>  <Increase (%)>
10

$$$$

* * *

Some compounds, each annotated with its measured Increase.
- measurement target: Muscarinic acetylcholine receptor M5 (Homo sapiens) (UniProt P08912)
- Sequence (P08912 whole entry): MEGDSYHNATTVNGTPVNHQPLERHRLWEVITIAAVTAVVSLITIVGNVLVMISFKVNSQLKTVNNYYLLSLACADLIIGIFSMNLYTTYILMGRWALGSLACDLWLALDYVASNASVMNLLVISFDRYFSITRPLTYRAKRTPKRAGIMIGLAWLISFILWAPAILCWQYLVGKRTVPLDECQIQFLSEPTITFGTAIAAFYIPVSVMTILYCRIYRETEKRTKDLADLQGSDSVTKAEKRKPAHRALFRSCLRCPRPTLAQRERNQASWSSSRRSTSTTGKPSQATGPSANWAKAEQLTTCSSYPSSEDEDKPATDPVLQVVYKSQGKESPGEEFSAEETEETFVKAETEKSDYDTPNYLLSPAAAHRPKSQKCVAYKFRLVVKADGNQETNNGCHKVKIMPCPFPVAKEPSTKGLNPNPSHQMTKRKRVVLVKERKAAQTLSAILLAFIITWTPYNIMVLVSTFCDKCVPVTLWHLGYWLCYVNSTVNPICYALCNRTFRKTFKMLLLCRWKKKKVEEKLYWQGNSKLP
- assay overview: Percent increase in phosphoinositides (PI) hydrolysis using CHO cells, stably transfected with human muscarinic m5 acetylcholine receptor (AChR)
- Format: functional, cell-based

>  <compound>
CC1=NC2(CCN(C)CC2)CO1

>  <readout unit>
%

>  <Increase>
79

$$$$
>  <compound>
C[N+](C)(C)CC#CCOC(=O)Nc1cccc(Cl)c1

>  <readout unit>
%

>  <Increase>
24

$$$$
>  <compound>
CC1=NCC2(CCN(C)CC2)O1

>  <readout unit>
%

>  <Increase>
28

$$$$
>  <compound>
C[C@@H]1OC2(CS1)CN1CCC2CC1 (some centres undefined)

>  <readout unit>
%

>  <Increase>
4

$$$$

* * *

- measurement target: Muscarinic acetylcholine receptor M3 (Homo sapiens) (UniProt P20309)
- assay overview: Percent increase in forskolin-stimulated cAMP accumulation using CHO cells, stably transfected with human muscarinic m3 acetylcholine receptor (AChR)
- Type: functional, cell-based

>  <compound>
C[N+](C)(C)CC#CCOC(=O)Nc1cccc(Cl)c1

>  <Increase [%]>
7

$$$$
>  <compound>
CC1=NCC2(CCN(C)CC2)O1

>  <Increase [%]>
10

$$$$
>  <compound>
C[C@@H]1OC2(CS1)CN1CCC2CC1 (some centres undefined)

>  <Increase [%]>
0.8

$$$$
>  <compound>
CC1=NC2(CCN(C)CC2)CO1

>  <Increase [%]>
4

$$$$
